biological target: EPHB1 (UniProt P54762); assay: phosphorylation enrichment, bacterial display (enrichment ratio); higher = better substrate or ligand; peptides without Tyr show the background;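 further: 11-residue human phosphosite peptides and single-mutation variants displayed on the E. coli surface, counted by deep sequencing, each peptide's frequency after selection divided by its frequency in the unselected input library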;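 further: frequency after pTyr selection over input frequency; kinase dosed for 20-30% of maximal phosphorylation in three min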
Sequence (P54762 whole entry, looked up): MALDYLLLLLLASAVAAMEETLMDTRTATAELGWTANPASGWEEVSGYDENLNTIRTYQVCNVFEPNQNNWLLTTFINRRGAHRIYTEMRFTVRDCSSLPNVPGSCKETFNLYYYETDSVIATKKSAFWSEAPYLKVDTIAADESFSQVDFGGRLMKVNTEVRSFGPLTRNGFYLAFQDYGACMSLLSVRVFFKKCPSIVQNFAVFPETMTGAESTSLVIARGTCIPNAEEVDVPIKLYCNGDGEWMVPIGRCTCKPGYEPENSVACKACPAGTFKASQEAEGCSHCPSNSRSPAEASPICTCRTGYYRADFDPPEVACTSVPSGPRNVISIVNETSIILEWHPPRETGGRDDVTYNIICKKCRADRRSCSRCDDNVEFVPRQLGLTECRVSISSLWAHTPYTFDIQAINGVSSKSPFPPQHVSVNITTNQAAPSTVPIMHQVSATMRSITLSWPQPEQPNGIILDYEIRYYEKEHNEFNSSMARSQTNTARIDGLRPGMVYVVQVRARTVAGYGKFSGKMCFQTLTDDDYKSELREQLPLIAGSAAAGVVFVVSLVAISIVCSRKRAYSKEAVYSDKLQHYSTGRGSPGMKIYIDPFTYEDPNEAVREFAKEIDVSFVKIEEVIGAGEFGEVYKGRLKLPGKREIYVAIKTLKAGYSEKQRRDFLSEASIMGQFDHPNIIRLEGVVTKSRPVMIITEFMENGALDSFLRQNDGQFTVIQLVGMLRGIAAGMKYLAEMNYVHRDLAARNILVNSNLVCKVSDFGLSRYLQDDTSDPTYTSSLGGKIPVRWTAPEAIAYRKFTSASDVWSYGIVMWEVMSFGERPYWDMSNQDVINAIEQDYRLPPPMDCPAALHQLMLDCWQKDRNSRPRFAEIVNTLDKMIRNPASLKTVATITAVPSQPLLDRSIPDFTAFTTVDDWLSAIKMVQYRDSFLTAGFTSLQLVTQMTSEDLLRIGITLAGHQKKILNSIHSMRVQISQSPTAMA
readout: phosphorylation enrichment
Would you mind answering with just the numeric figure?

Would you mind telling me what phosphorylation enrichment value was observed for QGLRLYRPHLP [BTK_Y617_A622P] ?
0.444

Would you mind telling me what phosphorylation enrichment value was observed for GEVLVYAEDPA [FLNA_Y319_V320A] ?
0.607

Continuing:
Would you mind telling me what phosphorylation enrichment value was observed for ATDLAYYLVRE [ASL_Y375_K380E] ?
0.675

Would you mind telling me what phosphorylation enrichment value was observed for EYLQKYKGFKI [SYNE1_Y6953] ?
0.427

Would you mind telling me what phosphorylation enrichment value was observed for RRAKGYPIDLF [ITGB2_Y125_YF] ?
0.566

Would you mind telling me what phosphorylation enrichment value was observed for LSSEMCVKSFT [F5_Y2149_Y2149C_YF] ?
0.472

Would you mind telling me what phosphorylation enrichment value was observed for YQSKHYACIRQ [TIMP3_Y182] ?
0.462

---

biological target: Fes (UniProt P07332); assay: phosphorylation enrichment, bacterial display (enrichment ratio); higher = better substrate or ligand; peptides without Tyr show the background
Sequence (P07332 whole entry, looked up): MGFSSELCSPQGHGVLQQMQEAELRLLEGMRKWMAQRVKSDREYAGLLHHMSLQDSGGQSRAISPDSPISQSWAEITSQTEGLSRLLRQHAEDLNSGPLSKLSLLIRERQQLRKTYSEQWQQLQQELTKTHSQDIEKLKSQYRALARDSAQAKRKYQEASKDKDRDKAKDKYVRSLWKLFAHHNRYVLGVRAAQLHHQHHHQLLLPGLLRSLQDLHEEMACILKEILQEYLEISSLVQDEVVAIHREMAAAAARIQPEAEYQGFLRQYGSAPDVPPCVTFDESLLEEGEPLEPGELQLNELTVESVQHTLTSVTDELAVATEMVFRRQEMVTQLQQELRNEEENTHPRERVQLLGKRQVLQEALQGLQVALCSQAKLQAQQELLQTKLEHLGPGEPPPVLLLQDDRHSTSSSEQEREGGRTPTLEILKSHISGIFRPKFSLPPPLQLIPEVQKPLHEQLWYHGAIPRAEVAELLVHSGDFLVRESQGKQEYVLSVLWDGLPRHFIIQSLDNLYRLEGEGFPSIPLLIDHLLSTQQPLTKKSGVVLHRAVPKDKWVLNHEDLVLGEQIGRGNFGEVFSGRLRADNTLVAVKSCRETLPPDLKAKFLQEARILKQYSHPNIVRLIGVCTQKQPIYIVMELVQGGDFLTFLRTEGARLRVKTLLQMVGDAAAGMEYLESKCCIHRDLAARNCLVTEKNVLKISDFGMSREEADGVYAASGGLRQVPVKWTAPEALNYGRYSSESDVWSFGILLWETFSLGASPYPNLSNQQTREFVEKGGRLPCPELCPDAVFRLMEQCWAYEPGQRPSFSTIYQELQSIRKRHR
// reported phosphorylation enrichment for each item listed
Would you mind answering with just the numeric figure?

Some sequences with recorded phosphorylation enrichment:
Would you mind telling me what phosphorylation enrichment value was observed for LEIETYPRLLD [KRT12_Y429_R430P] ?
1.87

Would you mind telling me what phosphorylation enrichment value was observed for EKLQKYFRQNP [EHHADH_Y682_YF] ?
0.742

Would you mind telling me what phosphorylation enrichment value was observed for QGLRLYRPHLP [BTK_Y617_A622P] ?
0.857

Would you mind telling me what phosphorylation enrichment value was observed for IFLADYRIMEG [ALOX12B_Y318_YF] ?
0.984

Would you mind telling me what phosphorylation enrichment value was observed for VTSLKYSTSPF [BRIP1_Y916_YF] ?
0.695

Would you mind telling me what phosphorylation enrichment value was observed for REESTYLPLTS [ICAM3_Y527] ?
1.75

Would you mind telling me what phosphorylation enrichment value was observed for VEKGSYSALRA [ABCC2_Y845_L849R] ?
0.551

Would you mind telling me what phosphorylation enrichment value was observed for SHMVDYQPFRK [TEX37_Y25_YF] ?
0.705

Would you mind telling me what phosphorylation enrichment value was observed for IFRAAYFGVFD [SLC25A4_Y191_YF] ?
1.25

Would you mind telling me what phosphorylation enrichment value was observed for IPGRYYETGSI [PAX2_Y73_L69P] ?
0.646

Continuing:
Would you mind telling me what phosphorylation enrichment value was observed for GLIPAYHWVIM [NMNAT1_Y64_R66W] ?
1.25

Would you mind telling me what phosphorylation enrichment value was observed for GIVKAYFVHAR [AIPL1_Y267_R270H_YF] ?
0.872

Would you mind telling me what phosphorylation enrichment value was observed for MPAVTYTPAMR [MEGF10_Y895] ?
0.569

Would you mind telling me what phosphorylation enrichment value was observed for ADSLRYIFPKL [EIF2B3_Y92_YF] ?
0.681

Would you mind telling me what phosphorylation enrichment value was observed for PRDSGYSYETI [MAP1B_Y1921_S1917R] ?
1.29

Would you mind telling me what phosphorylation enrichment value was observed for INITIYGKTFH [EFHC1_Y177_R182H] ?
1.44

Would you mind telling me what phosphorylation enrichment value was observed for RRVLVYVGRGA [QDPR_Y16_G17V] ?
0.799

Would you mind telling me what phosphorylation enrichment value was observed for SNMPTYSGHFT [GRIN2A_Y1224] ?
0.557

Would you mind telling me what phosphorylation enrichment value was observed for FISLIYTNFEA [GSTP1_Y109_YF] ?
1.55
